All figures here come from patent US20120214862A1.

Please go through the items and note down their percent inhibition of Factor 7 mRNA, relative to untreated control cells.
# System: human Factor 7 mRNA
# experimental_details: Dose-dependent antisense inhibition of human Factor 7 in HepB3 cells, transfection with electroporation
# Format: cell-based
# stated_conditions: 3.125 μM, 16 hours (Example 7, Table 15)
In the oligonucleotide strings, read from the 5' end, every base follows the letter of its sugar. An asterisk marks phosphorothioate; unmarked linkages are phosphodiester. Other units and linkages are bracketed, terminal groups are in braces. A string of capitals states the bases alone. e = 2'-O-(2-methoxyethyl) (MOE); [5mC] = 5-methylcytosine; d = 2'-deoxy (DNA)
Give bare numbers, in %.

Hi! Can you tell me percent inhibition of Factor 7 mRNA, relative to untreated control cells for each of these substances?
1. 422228 (antisense eT*eG*d[5mC]*dA*dT*dG*dG*dT*dG*dA*dT*dG*d[5mC]*dT*dT*e[5mC]*eT*eG*eA*eA) [compound 422228]
2. 422140 (antisense eG*eT*eT*e[5mC]*eT*dG*d[5mC]*dA*dG*dG*dA*dG*d[5mC]*dG*dG*e[5mC]*e[5mC]*eT*eA*eA) [compound 422140]
3. 422096 (antisense eA*eG*eA*e[5mC]*eA*dA*dT*dG*dG*dT*d[5mC]*dA*dG*dG*dG*e[5mC]*eT*eG*eG*eT) [compound 422096]

[18, 29, 26]

----------
Please go through the items and note down their percent inhibition of Factor 7 mRNA, 50.0 nM.
# System: human Factor 7 mRNA
# experimental_details: Dose-dependent antisense inhibition of human Factor 7 in HepB3 cells, transfection with lipofectin
# Type: cell-based
# stated_conditions: Example 2; HepB3, lipofectin, 50.0 nM, ~16 h
In the oligonucleotide strings, read from the 5' end, every base follows the letter of its sugar. An asterisk marks phosphorothioate; unmarked linkages are phosphodiester. Other units and linkages are bracketed, terminal groups are in braces. A string of capitals states the bases alone. e = 2'-O-(2-methoxyethyl) (MOE); [5mC] = 5-methylcytosine; d = 2'-deoxy (DNA)
Give bare numbers, in %.

Known results for substances:
{"substance": "407910 (antisense eA*eG*eT*e[5mC]*e[5mC]*dT*dT*dG*d[5mC]*dT*dG*d[5mC]*d[5mC]*dA*dT*e[5mC]*e[5mC]*eG*eA*eG) [compound 407910]", "observed": 82}
{"substance": "407641 (antisense e[5mC]*e[5mC]*eT*eG*eA*dG*dG*d[5mC]*d[5mC]*dA*dG*d[5mC]*dA*dG*dA*eT*e[5mC]*eA*e[5mC]*eG) [compound 407641]", "observed": 88}
{"substance": "407935 (antisense eA*eT*eG*e[5mC]*eA*dT*dG*dG*dT*dG*dA*dT*dG*d[5mC]*dT*eT*e[5mC]*eT*eG*eA) [compound 407935]", "observed": 90}

Next, consider the following substance.
percent inhibition of Factor 7 mRNA, 50.0 nM for 407606 (antisense e[5mC]*eT*eG*eG*eT*d[5mC]*d[5mC]*dT*dT*dG*d[5mC]*dA*dG*dG*dA*eG*e[5mC]*e[5mC]*e[5mC]*e[5mC]) [compound 407606] ?
83

----------
Please go through the items and note down their percent inhibition of Factor 7 mRNA, relative to untreated control cells.
# Tested on: human Factor 7 mRNA
# experimental_details: Dose-dependent antisense inhibition of human Factor 7 in HepB3 cells, transfection with lipofectin
# Format: cell-based
# stated_conditions: 3.125 nM, lipofectin, HepB3 cells, 16 hours
In the oligonucleotide strings, read from the 5' end, every base follows the letter of its sugar. An asterisk marks phosphorothioate; unmarked linkages are phosphodiester. Other units and linkages are bracketed, terminal groups are in braces. A string of capitals states the bases alone. e = 2'-O-(2-methoxyethyl) (MOE); [5mC] = 5-methylcytosine; d = 2'-deoxy (DNA)
Answers are plain numbers, in %.

{"substance": "407935 (antisense eA*eT*eG*e[5mC]*eA*dT*dG*dG*dT*dG*dA*dT*dG*d[5mC]*dT*eT*e[5mC]*eT*eG*eA) [compound 407935]", "target_desc": "human Factor 7 mRNA", "observed": 19}
{"substance": "422252 (antisense e[5mC]*eG*d[5mC]*d[5mC]*dG*dG*d[5mC]*dT*d[5mC]*dT*dG*d[5mC]*dT*d[5mC]*dA*eT*e[5mC]*e[5mC]*e[5mC]*e[5mC]) [compound 422252]", "target_desc": "human Factor 7 mRNA", "observed": 18}
{"substance": "422296 (antisense e[5mC]*e[5mC]*dG*dA*dG*dT*dT*d[5mC]*dT*dG*d[5mC]*dA*dG*dG*dA*eG*e[5mC]*eG*eG*e[5mC]) [compound 422296]", "target_desc": "human Factor 7 mRNA", "observed": 21}
{"substance": "422217 (antisense eG*eA*eG*dT*dT*d[5mC]*dT*dG*d[5mC]*dA*dG*dG*dA*dG*d[5mC]*dG*dG*e[5mC]*e[5mC]*eT) [compound 422217]", "target_desc": "human Factor 7 mRNA", "observed": 8}

Next, consider the following substance.
percent inhibition of Factor 7 mRNA, relative to untreated control cells for 422130 (antisense eG*e[5mC]*e[5mC]*eT*eG*dA*dG*dG*d[5mC]*d[5mC]*dA*dG*d[5mC]*dA*dG*eA*eT*e[5mC]*eA*e[5mC]) [compound 422130] ?
4
